- Organism: Rattus norvegicus
- assay.comment: Open TG-GATES - Regimen: Single
- Format: toxicity, organism-based, Sprague-Dawley
- Set-up: regimen Single, gender Male, age 6 weeks
- run.conditions: in vivo, po, 1000 mg/kg, 3 h, tissue Blood, route gavage, dose level High
Known Bas of a selection of molecules
reported.endpoint: Bas

1. CNC(=C[N+](=O)[O-])NCCSCc1ccc(CN(C)C)o1	0%
2. Cc1nnc2n1-c1ccc(Cl)cc1C(c1ccccc1Cl)=NC2	0%
3. COC(=O)C1=C(C)NC(C)=C(C(=O)OC)C1c1ccccc1[N+](=O)[O-]	0%
4. O=C(OC[C@H]1O[C@@H](OC(=O)c2cc(O)c(O)c(OC(=O)c3cc(O)c(O)c(O)c3)c2)[C@H](OC(=O)c2cc(O)c(O)c(OC(=O)c3cc(O)c(O)c(O)c3)c2)[C@@H](OC(=O)c2cc(O)c(O)c(OC(=O)c3cc(O)c(O)c(O)c3)c2)[C@@H]1OC(=O)c1cc(O)c(O)c(OC(=O)c2cc(O)c(O)c(O)c2)c1)c1cc(O)c(O)c(OC(=O)c2cc(O)c(O)c(O)c2)c1	0%
5. CN/C(=N/CCSCc1nc[nH]c1C)NC#N	0%

* * *

- Species: Rattus norvegicus
- assay.comment: Open TG-GATES - Regimen: Single
- Format: toxicity, organism-based, Sprague-Dawley
- Set-up: regimen Single, gender Male, age 6 weeks
- run.conditions: in vivo, po, 0 mg/kg, 6 h, tissue Blood, route gavage, dose level Control
reported.endpoint: Mono (%)

1) CS(=O)(=O)O.Cc1ccc(NC(=O)c2ccc(CN3CCN(C)CC3)cc2)cc1Nc1nccc(-c2cccnc2)n1 [IMATINIB MESYLATE]	3
2) CN/C(=N/CCSCc1nc[nH]c1C)NC#N [CIMETIDINE]	3.4
3) Cc1nnc2n1-c1ccc(Cl)cc1C(c1ccccc1Cl)=NC2 [TRIAZOLAM]	2.2
4) CN1C(=O)CCS(=O)(=O)C1c1ccc(Cl)cc1 (configuration not stated) [CHLORMEZANONE]	3.4
5) Nc1c2c(nc3ccccc13)CCCC2 [TACRINE]	2.6
6) Brc1ccccc1 [BROMOBENZENE]	3.8
7) NC1=NC(=O)C(c2ccccc2)O1 (configuration not stated) [PEMOLINE]	3

* * *

- Species on record: Rattus norvegicus
- assay.comment: Open TG-GATES - Regimen: Daily Repeat
- Format: toxicity, organism-based, Sprague-Dawley
- Parameters: regimen Daily Repeat, gender Male, age 6 weeks
- run.conditions: in vivo, po, 0 mg/kg, […], tissue Blood, route gavage, dose level Control, time 14 day
Label Satisfied for high-side RBC (at or above 700 x10_4/ul) and Not satisfied for low-side RBC (below it).

1) NC1=NC(=O)C(c2ccccc2)O1 (stereo unspecified)	Not satisfied
2) Nc1c2c(nc3ccccc13)CCCC2	Satisfied

* * *

- Species: Rattus norvegicus
- assay.comment: Open TG-GATES - Regimen: Single
- Type: toxicity, organism-based, Sprague-Dawley
- Parameters: regimen Single, gender Male, age 6 weeks
- run.conditions: in vivo, po, 1000 mg/kg, 3 h, tissue Plasma, route gavage, dose level High
reported.endpoint: DBIL (mg/dL)

1) O=C(OC[C@H]1O[C@@H](OC(=O)c2cc(O)c(O)c(OC(=O)c3cc(O)c(O)c(O)c3)c2)[C@H](OC(=O)c2cc(O)c(O)c(OC(=O)c3cc(O)c(O)c(O)c3)c2)[C@@H](OC(=O)c2cc(O)c(O)c(OC(=O)c3cc(O)c(O)c(O)c3)c2)[C@@H]1OC(=O)c1cc(O)c(O)c(OC(=O)c2cc(O)c(O)c(O)c2)c1)c1cc(O)c(O)c(OC(=O)c2cc(O)c(O)c(O)c2)c1	0.016
2) CNC(=C[N+](=O)[O-])NCCSCc1ccc(CN(C)C)o1	0.064

Where do these numbers come from? They come from ChEMBL document CHEMBL3885861.
